Record form. Attribute: MIC. Fill in for each entry.
test system: Proteus vulgaris IAM-1025; test: in vitro antimicrobial activity, two-fold agar-plate dilution method (MIC); format: cell-based; conditions: IAM1025, heart infusion agar, 37° C., 20 hours
Kindly provide the numeric value in µg/mL only, without the unit symbol.

Specify MIC for Nc1nc(/C(=N/OCC(=O)O)C(=O)NC2C(=O)N3C(C(=O)O)=C(Cl)CSC23)c(Cl)s1 (stereo not drawn) , system Proteus vulgaris IAM-1025. 0.05

Specify MIC for Nc1nc(/C(=N/OCC(=O)O)C(=O)NC2C(=O)N3C(C(=O)O)=C(CSc4nncs4)CSC23)c(Cl)s1 (stereo not drawn) , system Proteus vulgaris IAM-1025. 0.025

Specify MIC for C#CCO/N=C(\C(=O)NC1C(=O)N2C(C(=O)O)=C(CSc3nncs3)CSC12)c1nc(N)sc1Cl (stereo not drawn) , system Proteus vulgaris IAM-1025. 1.56

Specify MIC for Nc1nc(/C(=N/OC2C=CCC2)C(=O)NC2C(=O)N3C(C(=O)O)=C(CSc4nncs4)CSC23)c(Cl)s1 (stereo not drawn) , system Proteus vulgaris IAM-1025. 0.39

Specify MIC for C=CCO/N=C(\C(=O)NC1C(=O)N2C(C(=O)O)=C(CSc3nncs3)CSC12)c1nc(N)sc1Cl (stereo not drawn) , system Proteus vulgaris IAM-1025. 1.56

Specify MIC for CC(O/N=C(\C(=O)NC1C(=O)N2C(C(=O)O)=CCSC12)c1nc(N)sc1Cl)C(=O)O (stereo not drawn) , system Proteus vulgaris IAM-1025. 0.05
